assay_info: AUClast in Lewis rat at 10 mg/kg, po
Assay type: ADME, organism-based
Design: time 0 - last, dose 10 mg/kg, route oral
condition_info: plasma
property_label: AUC(0-t) (ng·h/mL)
Reply numerically in ng·h/mL, unit not repeated.

In: Looking for the measured AUC(0-t) of CCCCCN1C(=O)C2(COc3cc4c(cc32)OCO4)c2ccccc21 (stereo unspecified) , can you help?
Out: 143

###

assay_info: Cmax in Lewis rat at 3 mg/kg, iv
Assay type: ADME, organism-based
Parameters: dose 3 mg/kg, route intravenous
condition_info: in vivo
property_label: Cmax (ng/mL)
Reply numerically in ng/mL, unit not repeated.

In: Looking for the measured Cmax of CCCCCN1C(=O)C2(COc3cc4c(cc32)OCO4)c2ccccc21 (stereo unspecified) , can you help?
Out: 953

###

assay_info: Oral bioavailability in Lewis rat at 10 mg/kg
Assay type: ADME, organism-based
condition_info: in vivo
property_label: bioavailability (%)
Reply numerically in %, unit not repeated.

In: Looking for the measured bioavailability of CCCCCN1C(=O)C2(COc3cc4c(cc32)OCO4)c2ccccc21 (stereo unspecified) , can you help?
Out: 13
